These data points were gathered from patent US20240116997A1.

- measuredTarget: T1, IL-18 receptor (IL-18Rαβ) on cells (UniProt Q13478 19-541; O95256 20-599, limits assumed)
- T1 sequence (looked up) 1: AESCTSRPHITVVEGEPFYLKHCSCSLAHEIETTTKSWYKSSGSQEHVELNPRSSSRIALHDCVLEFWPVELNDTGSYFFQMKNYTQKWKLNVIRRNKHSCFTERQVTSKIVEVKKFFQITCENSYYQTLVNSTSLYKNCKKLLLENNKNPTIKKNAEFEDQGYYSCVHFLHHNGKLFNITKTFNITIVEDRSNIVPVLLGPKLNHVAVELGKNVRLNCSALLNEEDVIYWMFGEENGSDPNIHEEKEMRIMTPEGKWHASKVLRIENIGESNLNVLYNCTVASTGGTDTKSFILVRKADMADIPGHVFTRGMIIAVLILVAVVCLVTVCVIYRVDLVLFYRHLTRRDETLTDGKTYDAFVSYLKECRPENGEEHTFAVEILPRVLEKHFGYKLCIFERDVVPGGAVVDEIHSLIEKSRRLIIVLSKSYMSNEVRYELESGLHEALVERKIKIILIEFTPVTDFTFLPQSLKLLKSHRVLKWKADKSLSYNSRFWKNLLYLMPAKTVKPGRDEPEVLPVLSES
- T1 sequence (looked up) 2: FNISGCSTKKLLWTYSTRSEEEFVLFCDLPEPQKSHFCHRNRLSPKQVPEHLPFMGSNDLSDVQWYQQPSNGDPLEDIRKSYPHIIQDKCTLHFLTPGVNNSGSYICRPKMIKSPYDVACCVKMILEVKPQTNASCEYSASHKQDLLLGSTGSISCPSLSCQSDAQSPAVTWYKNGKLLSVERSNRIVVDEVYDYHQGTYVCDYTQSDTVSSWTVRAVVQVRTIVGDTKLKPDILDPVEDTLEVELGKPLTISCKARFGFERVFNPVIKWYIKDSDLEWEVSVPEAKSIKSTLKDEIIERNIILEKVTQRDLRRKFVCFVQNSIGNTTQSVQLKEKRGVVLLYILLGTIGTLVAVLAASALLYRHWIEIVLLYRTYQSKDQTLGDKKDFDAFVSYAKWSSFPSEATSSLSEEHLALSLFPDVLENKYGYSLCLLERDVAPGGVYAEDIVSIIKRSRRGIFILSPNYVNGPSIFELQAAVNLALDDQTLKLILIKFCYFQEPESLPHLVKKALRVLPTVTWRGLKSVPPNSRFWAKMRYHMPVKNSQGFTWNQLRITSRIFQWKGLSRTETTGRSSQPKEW
- experimentalProtocol: cell-based or functional assay
resultType: EC50 (read off the curve), HEK-Blue IL18R reporter

C191 (C086-PLGLAG linker-IL-18Rα D3-His6; SEQ ID NO: 76) (ligand) YFGKLKSKLSIIRNLNDQVLFIDQGNRPLFEDMTDSDARDNAPRTIFIISMYADSQPRGMAVAISVKCEKISTLSAENKIISFKEMNPPDNIKDTKSDIIFFQRSVPGHDNKMQFESSSYEGYFLAAEKERDLFKLILKKEDELGDRSIMFTVQNESGGPLGLAGGSNIVPVLLGPKLNHVAVELGKNVRLNCSALLNEEDVIYWMFGEENGSDPNIHEEKEMRIMTPEGKWHASKVLRIENIGESNLNVLYNCTVASTGGTDTKSFILVRKADHHHHHH : ~2 pM
C172 (C086-LinkerX-IL-18Rα D3-His6; SEQ ID NO: 73) (ligand) YFGKLKSKLSIIRNLNDQVLFIDQGNRPLFEDMTDSDARDNAPRTIFIISMYADSQPRGMAVAISVKCEKISTLSAENKIISFKEMNPPDNIKDTKSDIIFFQRSVPGHDNKMQFESSSYEGYFLAAEKERDLFKLILKKEDELGDRSIMFTVQNESGGPGPAGMKGLPGSNIVPVLLGPKLNHVAVELGKNVRLNCSALLNEEDVIYWMFGEENGSDPNIHEEKEMRIMTPEGKWHASKVLRIENIGESNLNVLYNCTVASTGGTDTKSFILVRKADHHHHHH : ~1 pM
C189 (C086-LinkerX-IL-18Rα D3 without glycosylation sites-His6; SEQ ID NO: 75) (ligand) YFGKLKSKLSIIRNLNDQVLFIDQGNRPLFEDMTDSDARDNAPRTIFIISMYADSQPRGMAVAISVKCEKISTLSAENKIISFKEMNPPDNIKDTKSDIIFFQRSVPGHDNKMQFESSSYEGYFLAAEKERDLFKLILKKEDELGDRSIMFTVQNESGGPGPAGMKGLPGSNIVPVLLGPKLNHVAVELGKNVRLDCSALLNEEDVIYWMFGEEDGSDPNIHEEKEMRIMTPEGKWHASKVLRIENIGESNLNVLYDCTVASTGGTDTKSFILVRKADHHHHHH : ~0.4 pM

Now look at this entry.
Using the record for C086 (SEQ ID NO: 30; E6K, V11I, C38A, K53A, T63A, C76A, C127A) (ligand) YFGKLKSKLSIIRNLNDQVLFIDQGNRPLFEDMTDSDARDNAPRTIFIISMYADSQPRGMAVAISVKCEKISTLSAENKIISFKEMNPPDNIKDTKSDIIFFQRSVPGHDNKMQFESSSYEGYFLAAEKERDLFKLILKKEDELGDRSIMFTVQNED , report its EC50 (read off the curve), HEK-Blue IL18R reporter.
~0.04 pM
